targetOrTestSystem: MARK4 (Homo sapiens, UniProt Q96L34)
Sequence (Q96L34 1-752): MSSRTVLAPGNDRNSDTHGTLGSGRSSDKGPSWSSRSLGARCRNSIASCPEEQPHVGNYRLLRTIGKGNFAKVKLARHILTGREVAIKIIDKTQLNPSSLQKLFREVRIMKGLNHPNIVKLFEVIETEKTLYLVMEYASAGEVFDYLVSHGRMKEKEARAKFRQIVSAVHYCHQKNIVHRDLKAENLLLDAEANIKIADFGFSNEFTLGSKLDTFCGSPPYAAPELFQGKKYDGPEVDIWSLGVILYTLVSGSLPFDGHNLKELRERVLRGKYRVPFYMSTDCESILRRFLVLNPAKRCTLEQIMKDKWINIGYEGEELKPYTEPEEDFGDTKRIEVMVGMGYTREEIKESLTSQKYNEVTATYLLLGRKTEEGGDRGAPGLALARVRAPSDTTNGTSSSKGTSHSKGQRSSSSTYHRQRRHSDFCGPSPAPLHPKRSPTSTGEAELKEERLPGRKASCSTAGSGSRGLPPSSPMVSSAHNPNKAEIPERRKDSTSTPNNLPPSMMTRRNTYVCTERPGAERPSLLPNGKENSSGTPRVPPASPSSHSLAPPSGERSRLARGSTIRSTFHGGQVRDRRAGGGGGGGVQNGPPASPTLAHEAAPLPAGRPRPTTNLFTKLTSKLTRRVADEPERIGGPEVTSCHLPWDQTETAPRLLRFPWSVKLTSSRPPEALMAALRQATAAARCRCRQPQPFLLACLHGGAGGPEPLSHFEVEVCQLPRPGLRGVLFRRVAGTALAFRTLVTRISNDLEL
assaySummary: Kinase profiling (radiometric filter-binding)
Assay type: biochemical
recordedConditions: MARK4, 1 µM inhibitor; read-out: Residual activity, %
measuredParameter: remaining activity at 1 µM (%)
Give bare numbers, in %.

Solved entries:
QUERY: What value of remaining activity at 1 µM on MARK4 (Homo sapiens, UniProt Q96L34) does N=C(N)NCCC[C@@H](NC(=O)CNC(=O)[C@@H](CCCNC(=N)N)NC(=O)[C@@H](CCCNC(=N)N)NC(=O)CCCCCCCNCc1nc2c(sc3cc(Br)cnc32)c(=O)[nH]1)C(=O)N[C@H](CCCCN)C(N)=O [Compound 1, BPTP-Aoc-(D-Arg)2-Gly-D-Arg-D-Lys-NH2] have?
RESULT: 124

QUERY: Enter reported remaining activity at 1 µM observed with MARK4 (Homo sapiens, UniProt Q96L34) for N=C(N)NCCC[C@@H](NC(=O)CNC(=O)[C@@H](CCCNC(=N)N)NC(=O)[C@@H](CCCNC(=N)N)NC(=O)CCCCCCCNCc1nc2c(sc3ccc(Br)cc32)c(=O)[nH]1)C(=O)N[C@H](CCCCN)C(N)=O [Compound 2, BBTP-Aoc-(D-Arg)2-Gly-D-Arg-D-Lys-NH2]
RESULT: 128

Further cases:
QUERY: Any idea what remaining activity at 1 µM came out for N=C(N)NCCC[C@@H](NC(=O)CNC(=O)[C@@H](CCCNC(=N)N)NC(=O)[C@@H](CCCNC(=N)N)NC(=O)Cn1cc(CNCc2nc3c(sc4ccc(Br)cc43)c(=O)[nH]2)nn1)C(=O)N[C@H](CCCCN)C(N)=O [Compound 3, BBTP-Amt-(D-Arg)2-Gly-D-Arg-D-Lys-NH2] on MARK4 (Homo sapiens, UniProt Q96L34)?
RESULT: 90
